Overview of recorded pIC50 for various compounds
- Tested on: HaCaT
- experiment.summary: Antihyperproliferative activity against human HaCaT cells after 48 hrs by phase contrast microscopic analysis
- Format: functional, cell-based
pIC50: −log10 of the molar value.
assay.endpoint: pIC50

• O=C1c2cc(-c3nnn[nH]3)sc2C(=O)c2c(Cl)cccc21 = < 4.52
• O=C(O)c1cc2c(s1)C(=O)c1c(Br)cccc1C2=O = < 4.52
• O=C1c2ccsc2C(=O)c2c(I)cccc21 = < 4.52

Values from ChEMBL document CHEMBL3763096
